These data points were gathered from ChEMBL document CHEMBL1649105.

Target: Lutropin-choriogonadotropic hormone receptor (Homo sapiens, UniProt P22888)
Sequence (P22888 whole entry): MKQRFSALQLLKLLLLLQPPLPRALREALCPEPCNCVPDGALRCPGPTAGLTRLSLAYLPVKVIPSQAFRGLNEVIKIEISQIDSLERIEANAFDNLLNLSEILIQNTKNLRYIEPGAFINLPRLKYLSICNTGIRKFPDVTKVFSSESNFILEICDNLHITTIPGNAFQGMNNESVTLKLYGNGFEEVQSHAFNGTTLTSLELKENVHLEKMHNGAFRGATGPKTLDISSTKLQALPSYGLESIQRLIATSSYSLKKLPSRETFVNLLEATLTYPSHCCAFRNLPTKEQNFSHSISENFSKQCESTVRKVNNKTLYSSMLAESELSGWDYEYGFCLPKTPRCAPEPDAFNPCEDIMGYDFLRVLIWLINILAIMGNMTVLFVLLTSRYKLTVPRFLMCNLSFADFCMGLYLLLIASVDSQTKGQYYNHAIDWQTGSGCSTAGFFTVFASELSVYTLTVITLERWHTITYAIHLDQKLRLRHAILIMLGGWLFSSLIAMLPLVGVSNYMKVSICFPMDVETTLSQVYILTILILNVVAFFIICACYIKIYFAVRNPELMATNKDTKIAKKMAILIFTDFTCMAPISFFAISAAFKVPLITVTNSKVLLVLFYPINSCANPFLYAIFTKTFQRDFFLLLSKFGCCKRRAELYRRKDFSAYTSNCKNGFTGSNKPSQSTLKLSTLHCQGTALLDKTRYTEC
Experiment: Agonist activity at human LH receptor expressed in CHO-K1 cells assessed as stimulation of luciferase activity by CRE-driven luciferase reporter gene assay
Assay type: functional, cell-based
Conditions: read-out: EC50
pEC50: −log10 of the molar value.
property_label: pEC50

{"given_smiles": "CSc1nc(-c2cccc(NCC(=O)NCc3cn(CCOCCOCCOCCn4cc(COc5ccc([C@]6(C)CC(C)(C)N(C(C)=O)c7ccc(NC(=O)c8ccc(-c9ccccc9)cc8)cc76)cc5)nn4)nn3)c2)c2c(N)c(C(=O)NC(C)(C)C)sc2n1", "property_label": "pEC50", "readout_number": 7.24}
{"given_smiles": "CSc1nc(-c2cccc(NCC(=O)NCc3cn(CCOCCOCCOCCOCCn4cc(COc5ccc([C@@]6(C)CC(C)(C)N(C(C)=O)c7ccc(NC(=O)c8ccc(-c9ccccc9)cc8)cc76)cc5)nn4)nn3)c2)c2c(N)c(C(=O)NC(C)(C)C)sc2n1", "property_label": "pEC50", "readout_number": 7.26}
{"given_smiles": "CSc1nc(-c2cccc(NCC(=O)NCc3cn(CCn4cc(COc5ccc([C@@]6(C)CC(C)(C)N(C(C)=O)c7ccc(NC(=O)c8ccc(-c9ccccc9)cc8)cc76)cc5)nn4)nn3)c2)c2c(N)c(C(=O)NC(C)(C)C)sc2n1", "property_label": "pEC50", "readout_number": 8.00}
{"given_smiles": "CSc1nc(-c2cccc(NCC(=O)NCc3cn(CCOCCOCCn4cc(COc5ccc([C@@]6(C)CC(C)(C)N(C(C)=O)c7ccc(NC(=O)c8ccc(-c9ccccc9)cc8)cc76)cc5)nn4)nn3)c2)c2c(N)c(C(=O)NC(C)(C)C)sc2n1", "property_label": "pEC50", "readout_number": 7.37}
{"given_smiles": "CSc1nc(-c2cccc(NCC(=O)NCc3cn(CCOCCOCCN=[N+]=[N-])nn3)c2)c2c(N)c(C(=O)NC(C)(C)C)sc2n1", "property_label": "pEC50", "readout_number": 8.30}
{"given_smiles": "CSc1nc(-c2cccc(NCC(=O)NCc3cn(CCOCCOCCn4cc(COc5ccc([C@]6(C)CC(C)(C)N(C(C)=O)c7ccc(NC(=O)c8ccc(-c9ccccc9)cc8)cc76)cc5)nn4)nn3)c2)c2c(N)c(C(=O)NC(C)(C)C)sc2n1", "property_label": "pEC50", "readout_number": 7.12}

I = CSc1nc(-c2cccc(NCC(=O)NCc3cn(CCOCCOCCOCCOCCn4cc(COc5ccc([C@]6(C)CC(C)(C)N(C(C)=O)c7ccc(NC(=O)c8ccc(-c9ccccc9)cc8)cc76)cc5)nn4)nn3)c2)c2c(N)c(C(=O)NC(C)(C)C)sc2n1
II = C#CCNC(=O)CNc1cccc(-c2nc(SC)nc3sc(C(=O)NC(C)(C)C)c(N)c23)c1
Qu. Param pair: I , II . Output: the one whose pEC50 is numerically greater. In your reply, give the label of the chosen option.
Ans. II
(II: 9.00, I: 7.41)

1 = CSc1nc(-c2cccc(NCC(=O)NCc3cn(CCOCCOCCOCCn4cc(COc5ccc([C@@]6(C)CC(C)(C)N(C(C)=O)c7ccc(NC(=O)c8ccc(-c9ccccc9)cc8)cc76)cc5)nn4)nn3)c2)c2c(N)c(C(=O)NC(C)(C)C)sc2n1
2 = CSc1nc(-c2cccc(NCC(=O)NCc3cn(CCOCCn4cc(COc5ccc([C@@]6(C)CC(C)(C)N(C(C)=O)c7ccc(NC(=O)c8ccc(-c9ccccc9)cc8)cc76)cc5)nn4)nn3)c2)c2c(N)c(C(=O)NC(C)(C)C)sc2n1
Qu. In terms of reported pEC50, does 1 or 2 have the smaller number? Write the label of whichever entry you select.
Ans. 1

1 = CSc1nc(-c2cccc(NCC(=O)NCc3cn(CCn4cc(COc5ccc([C@]6(C)CC(C)(C)N(C(C)=O)c7ccc(NC(=O)c8ccc(-c9ccccc9)cc8)cc76)cc5)nn4)nn3)c2)c2c(N)c(C(=O)NC(C)(C)C)sc2n1
2 = CSc1nc(-c2cccc(NCC(=O)NCc3cn(CCOCCn4cc(COc5ccc([C@]6(C)CC(C)(C)N(C(C)=O)c7ccc(NC(=O)c8ccc(-c9ccccc9)cc8)cc76)cc5)nn4)nn3)c2)c2c(N)c(C(=O)NC(C)(C)C)sc2n1
Qu. Could you kindly indicate whether 1 or 2 has the higher pEC50 value? Respond using the label that marks the chosen record.
Ans. 1
